Each entry below carries its recorded Size (nm).
assay: Dynamic light scattering of Fluc mRNA/peptoid formulations (particle size, PDI); type: physicochemical; details: volume average particle size/diameter by DLS; Fluc mRNA/peptoid formulation, 5:1 mass ratio peptoid:cargo

Known results for compounds:
CCCCCCCCCCN(CC(N)=O)C(=O)CN(CCCCCCCCCC)C(=O)CN(CCCCCCCCCC)C(=O)CN(CCCCCCCCCC)C(=O)CN(CCc1ccccc1)C(=O)CN(CCc1ccccc1)C(=O)CN(CC1CCCN1)C(=O)CN(CCc1ccccc1)C(=O)CN(CCc1ccccc1)C(=O)CN(CC1CCCN1)C(=O)CN(CCc1ccccc1)C(=O)CN(CCc1ccccc1)C(=O)CNCC1CCCN1 (stereo not drawn) [Compound 34] ... 348.4 nm
CCCCCCCCCCN(CC(N)=O)C(=O)CN(CCCCCCCCCC)C(=O)CN(CCCCCCCCCC)C(=O)CN(CCCCCCCCCC)C(=O)CN(CCCCCCCCCC)C(=O)CN(CCc1ccccc1)C(=O)CN(CCc1ccccc1)C(=O)CN(CCN)C(=O)CN(CCc1ccccc1)C(=O)CN(CCc1ccccc1)C(=O)CN(CCN)C(=O)CN(CCc1ccccc1)C(=O)CN(CCc1ccccc1)C(=O)CN(CCN)C(=O)CN(CCc1ccccc1)C(=O)CN(CCc1ccccc1)C(=O)CNCCN [Compound 21] ... 386.5 nm

Continue with the next compound.
Quick one: give measured Size (nm) for CCCCCCCCCCN(CC(N)=O)C(=O)CN(CCCCCCCCCC)C(=O)CN(CCCCCCCCCC)C(=O)CN(CCCCCCCCCC)C(=O)CN(CCc1ccccc1)C(=O)CN(CCc1ccccc1)C(=O)CN(CCN)C(=O)CN(CCc1ccccc1)C(=O)CN(CCc1ccccc1)C(=O)CN(CCN)C(=O)CN(CCc1ccccc1)C(=O)CN(CCc1ccccc1)C(=O)CNCCN [Compound 8] 234 nm

* * *

assay: Dynamic light scattering of Fluc mRNA/peptoid formulations (particle size, PDI); format: physicochemical; conditions: volume average particle size/diameter by DLS; Fluc mRNA/peptoid formulation, 5:1 mass ratio peptoid:cargo
Size (nm): recorded values
Answer with a number only, understood to be in nm.

Fill in reported Size (nm) for this entry: CCCCCCCCCCN(CC(=O)N(CC(=O)N(CCCCCCCCCC)CC(=O)N(CC(N)=O)CC(CC)CCCC)CC(CC)CCCC)C(=O)CN(CCc1ccccc1)C(=O)CN(CCc1ccccc1)C(=O)CN(CCN)C(=O)CN(CCc1ccccc1)C(=O)CN(CCc1ccccc1)C(=O)CN(CCN)C(=O)CN(CCc1ccccc1)C(=O)CN(CCc1ccccc1)C(=O)CNCCN (stereo not shown) [Compound 24] 161

Tell me Size (nm) reported for CCCCCCCCCCN(CC(N)=O)C(=O)CN(CCCCCCCCCC)C(=O)CN(CCCCCCCCCC)C(=O)CN(CCCCCCCCCC)C(=O)CN(CCCCCCCCCC)C(=O)CN(CCc1ccccc1)C(=O)CN(CCc1ccccc1)C(=O)CN(CCN)C(=O)CN(CCc1ccccc1)C(=O)CN(CCc1ccccc1)C(=O)CN(CCN)C(=O)CN(CCc1ccccc1)C(=O)CN(CCc1ccccc1)C(=O)CNCCN [Compound 19] 276

Identify measured Size (nm) associated with CCCCCCCCCCN(CC(N)=O)C(=O)CN(CCCCCCCCCC)C(=O)CN(CCc1ccccc1)C(=O)CN(CCc1ccccc1)C(=O)CN(CCN)C(=O)CN(CCc1ccccc1)C(=O)CN(CCc1ccccc1)C(=O)CN(CCN)C(=O)CN(CCc1ccccc1)C(=O)CN(CCc1ccccc1)C(=O)CN(CCN)C(=O)CN(CCc1ccccc1)C(=O)CN(CCc1ccccc1)C(=O)CN(CCN)C(=O)CN(CCc1ccccc1)C(=O)CN(CCc1ccccc1)C(=O)CNCCN [Compound 12] 224.4

Please look at this compound and report its Size (nm): CCCCCCCCCCN(CC(N)=O)C(=O)CN(CCCCCCCCCC)C(=O)CN(CCCCCCCCCC)C(=O)CN(CCCCCCCCCC)C(=O)CN(CCc1ccccc1)C(=O)CN(CCc1ccccc1)C(=O)CN(CC1CCCN1)C(=O)CN(CCc1ccccc1)C(=O)CN(CCc1ccccc1)C(=O)CN(CC1CCCN1)C(=O)CN(CCc1ccccc1)C(=O)CN(CCc1ccccc1)C(=O)CN(CC1CCCN1)C(=O)CN(CCc1ccccc1)C(=O)CN(CCc1ccccc1)C(=O)CNCC1CCCN1 (stereo not shown) [Compound 35] 359.8

* * *

experiment: mRNA encapsulation by Qubit RNA HS dye fluorescence before and after Triton X-100 lysis; format: physicochemical; details: percentage of mRNA encapsulation; Fluc mRNA/peptoid formulation, 5:1 mass ratio peptoid:cargo
Below, each entry is listed alongside its reported % Encapsulation.
Your answer is read as %, so omit the unit and give the number.

CCCCCCCCCCN(CC(N)=O)C(=O)CN(CCCCCCCCCC)C(=O)CN(CCCCCCCCCC)C(=O)CN(CCCCCCCCCC)C(=O)CN(CCc1ccccc1)C(=O)CN(CCc1ccccc1)C(=O)CN(CCCN)C(=O)CN(CCc1ccccc1)C(=O)CN(CCc1ccccc1)C(=O)CN(CCCN)C(=O)CN(CCc1ccccc1)C(=O)CN(CCc1ccccc1)C(=O)CN(CCCN)C(=O)CN(CCc1ccccc1)C(=O)CN(CCc1ccccc1)C(=O)CNCCCN ... 24.8
CCCCCCCCCCN(CC(N)=O)C(=O)CN(CCCCCCCCCC)C(=O)CN(CCCCCCCCCC)C(=O)CN(CCCCCCCCCC)C(=O)CN(CCc1ccccc1)C(=O)CN(CCc1ccccc1)C(=O)CN(CC1CCCN1)C(=O)CN(CCc1ccccc1)C(=O)CN(CCc1ccccc1)C(=O)CN(CC1CCCN1)C(=O)CN(CCc1ccccc1)C(=O)CN(CCc1ccccc1)C(=O)CNCC1CCCN1 (stereo not shown) ... 58.0
CCCCCCCCCCN(CC(N)=O)C(=O)CN(CCCCCCCCCC)C(=O)CN(CCCCCCCCCC)C(=O)CN(CCCCCCCCCC)C(=O)CN(CCc1ccccc1)C(=O)CN(CCc1ccccc1)C(=O)CN(CC1CCCN1)C(=O)CN(CCc1ccccc1)C(=O)CN(CCc1ccccc1)C(=O)CN(CC1CCCN1)C(=O)CN(CCc1ccccc1)C(=O)CN(CCc1ccccc1)C(=O)CN(CC1CCCN1)C(=O)CN(CCc1ccccc1)C(=O)CN(CCc1ccccc1)C(=O)CNCC1CCCN1 (stereo not shown) ... 38.0

# evaluate next
Note % Encapsulation for the compound shown: "CCCCCCCCCCN(CC(N)=O)C(=O)CN(CCCCCCCCCC)C(=O)CN(CCc1ccccc1)C(=O)CN(CCc1ccccc1)C(=O)CN(CCN)C(=O)CN(CCc1ccccc1)C(=O)CN(CCc1ccccc1)C(=O)CN(CCN)C(=O)CN(CCc1ccccc1)C(=O)CN(CCc1ccccc1)C(=O)CN(CCN)C(=O)CN(CCc1ccccc1)C(=O)CN(CCc1ccccc1)C(=O)CN(CCN)C(=O)CN(CCc1ccccc1)C(=O)CN(CCc1ccccc1)C(=O)CNCCN" 86.5

* * *

Test: mRNA encapsulation by Qubit RNA HS dye fluorescence before and after Triton X-100 lysis
Type: physicochemical
Conditions: percentage of mRNA encapsulation; Fluc mRNA/peptoid formulation, 5:1 mass ratio peptoid:cargo
Excerpt: To prepare nanoparticle formulations, the tertiary amino lipidated and/or PEGylated cationic peptide compound is mixed by pipetting with nucleic acid at a mass ratio between approximately 1:1 (peptide compound:cargo) and 20:1. […] The exemplary amino lipidated cationic peptoids 1-36 described in Example 2 were combined with firefly luciferase (Fluc) mRNA to form nanoparticle compositions to be evaluated for therapeutic and/or prophylactic purposes in vitro or in vivo. […]
measurement label: % Encapsulation
Kindly format the answer as number then unit.

Note % Encapsulation for the molecule shown: CCCCCCCCCCN(CC(=O)N(CC(=O)N(CCCCCCCCCC)CC(=O)N(CC(N)=O)CC(CC)CCCC)CC(CC)CCCC)C(=O)CN(CCc1ccccc1)C(=O)CN(CCc1ccccc1)C(=O)CN(CCN)C(=O)CN(CCc1ccccc1)C(=O)CN(CCc1ccccc1)C(=O)CN(CCN)C(=O)CN(CCc1ccccc1)C(=O)CN(CCc1ccccc1)C(=O)CNCCN (stereo not shown) 87.0%

* * *

experiment: Dynamic light scattering of Fluc mRNA/peptoid formulations (particle size, PDI); format: physicochemical; settings: volume average particle size/diameter by DLS; Fluc mRNA/peptoid formulation, 5:1 mass ratio peptoid:cargo
measurement label: Size (nm)
Write the figure, then the unit, nothing else.

Look up and report measured Size (nm) for this entry: "CCCCCCCCCCN(CC(N)=O)C(=O)CN(CCCCCCCCCC)C(=O)CN(CCCCCCCCCC)C(=O)CN(CCCCCCCCCC)C(=O)CN(CCc1ccccc1)C(=O)CN(CCc1ccccc1)C(=O)CN(CCCN)C(=O)CN(CCc1ccccc1)C(=O)CN(CCc1ccccc1)C(=O)CN(CCCN)C(=O)CN(CCc1ccccc1)C(=O)CN(CCc1ccccc1)C(=O)CN(CCCN)C(=O)CN(CCc1ccccc1)C(=O)CN(CCc1ccccc1)C(=O)CNCCCN" 343.4 nm

* * *

A collection of compounds and their measured % Encapsulation
Test: mRNA encapsulation by Qubit RNA HS dye fluorescence before and after Triton X-100 lysis
Type: physicochemical
Conditions: percentage of mRNA encapsulation; Fluc mRNA/peptoid formulation, 5:1 mass ratio peptoid:cargo
Source text: To prepare nanoparticle formulations, the tertiary amino lipidated and/or PEGylated cationic peptide compound is mixed by pipetting with nucleic acid at a mass ratio between approximately 1:1 (peptide compound:cargo) and 20:1. […] The exemplary amino lipidated cationic peptoids 1-36 described in Example 2 were combined with firefly luciferase (Fluc) mRNA to form nanoparticle compositions to be evaluated for therapeutic and/or prophylactic purposes in vitro or in vivo. […]
The reply should be a number in %, with the unit left off.

Examples with their reported % Encapsulation follow.
CCCCCCCCCCN(CC(N)=O)C(=O)CN(CCCCCCCCCC)C(=O)CN(CCCCCCCCCC)C(=O)CN(CCCCCCCCCC)C(=O)CN(CCc1ccccc1)C(=O)CN(CCc1ccccc1)C(=O)CN(CCN)C(=O)CN(CCc1ccccc1)C(=O)CN(CCc1ccccc1)C(=O)CN(CCN)C(=O)CN(CCc1ccccc1)C(=O)CN(CCc1ccccc1)C(=O)CNCCN [Compound 8] ... 82.5
CCCCCCCCCCN(CC(N)=O)C(=O)CN(CCCCCCCCCC)C(=O)CN(CCCCCCCCCC)C(=O)CN(CCCCCCCCCC)C(=O)CN(CCCCCCCCCC)C(=O)CN(CCc1ccccc1)C(=O)CN(CCc1ccccc1)C(=O)CN(CCN)C(=O)CN(CCc1ccccc1)C(=O)CN(CCc1ccccc1)C(=O)CN(CCN)C(=O)CN(CCc1ccccc1)C(=O)CN(CCc1ccccc1)C(=O)CN(CCN)C(=O)CN(CCc1ccccc1)C(=O)CN(CCc1ccccc1)C(=O)CNCCN [Compound 21] ... 65.4

Now for another entry.
Provide one value: measured % Encapsulation of CCCCCCCCCCN(CC(N)=O)C(=O)CN(CCCCCCCCCC)C(=O)CN(CCCCCCCCCC)C(=O)CN(CCCCCCCCCC)C(=O)CN(CCCCCCCCCC)C(=O)CN(CCc1ccccc1)C(=O)CN(CCc1ccccc1)C(=O)CN(CCN)C(=O)CN(CCc1ccccc1)C(=O)CN(CCc1ccccc1)C(=O)CN(CCN)C(=O)CN(CCc1ccccc1)C(=O)CN(CCc1ccccc1)C(=O)CNCCN [Compound 19] 70.9

Values from patent US11446394B2
